src = the NIST ThermoML archive (doi:10.1016/j.jct.2019.03.040)

Let's look at some compounds and their measured Critical pressure.
- condition: Liquid; Resistive pulse heating

{"columns": ["compound", "Critical pressure, kPa"],
 "data": [
  ["COC(=O)CCC(C)=O [methyl levulinate]", 3270],
  ["CC(=O)CCC(=O)O", 5310],
  ["CCCCOC(=O)CCC(C)=O [butyl levulinate]", 2410],
  ["CCOC(=O)CCC(C)=O [ethyl levulinate]", 2970],
  ["CCCOC(=O)CCC(C)=O [propyl levulinate]", 2670]
]}

---

- condition: 343.15 K; 101.33 kPa; Liquid; Laser flash apparatus

{"columns": ["compound", "thermal diffusivity, m2/s"],
 "data": [
  ["CCCCOC(=O)CCC(C)=O [butyl levulinate]", "7.37e-08"],
  ["CCOC(=O)CCC(C)=O [ethyl levulinate]", "7.5e-08"],
  ["COC(=O)CCC(C)=O [methyl levulinate]", "7.6e-08"],
  ["CCCOC(=O)CCC(C)=O [propyl levulinate]", "7.37e-08"]
]}

---

Let's look at some compounds and their measured thermal diffusivity.
- condition: 313.15 K; 101.33 kPa; Liquid; Laser flash apparatus
measuredEndpoint: thermal diffusivity (m2/s)

{"columns": ["compound", "measuredEndpoint", "quantitativeResult"],
 "data": [
  ["CCOC(=O)CCC(C)=O [ethyl levulinate]", "thermal diffusivity", "7.8e-08"],
  ["COC(=O)CCC(C)=O [methyl levulinate]", "thermal diffusivity", "7.9e-08"],
  ["CCCCOC(=O)CCC(C)=O [butyl levulinate]", "thermal diffusivity", "7.68e-08"],
  ["CCCOC(=O)CCC(C)=O [propyl levulinate]", "thermal diffusivity", "7.73e-08"]
]}
